A compilation of pKi values for UniProt P49841 from the published literature.
pKi: −log10 of the molar value.

c1ccc(Oc2cccc(Nc3nccc(-c4nccs4)n3)c2)cc1 > 7.00
Cc1cc(Nc2nc(Nc3ccc(NC(=O)OC(C)(C)C)cc3)nc3ccccc23)n[nH]1 5.15 to 6.00
Fc1cnc2[nH]nc(Nc3cc(N4CCC4)nc(C4CCCCC4)n3)c2c1 > 7.30

// assay UniProt P49841, entry CC(=O)Nc1ccc(-c2cnc3[nH]cc(-c4oncc4-c4cccc(F)c4F)c3c2)cc1 , pKi value = 4.90 to 6.00

// assay UniProt P49841, entry CCOC(=O)c1ccc(Nc2ncn(-c3ccnc(N4C[C@@H](C)N(C(C)=O)[C@@H](C)C4)c3)n2)cc1 , pKi value = < 6.00
